// provenance: PubChem BioAssay (NCI)

- Tested on: MALME-3M melanoma
- assay: NCI tumour cell line growth inhibition, 48 h
measured_attribute: TGI

Example entries and their recorded answers appear below.
>>> observed_value("[O-][N+](=Nc1ccccc1CO)c1ccccc1CO")
"> 100 µM"
>>> observed_value("Cc1nc(-c2ccccc2)n2nc(NCCCN3CCOCC3)ncc12")
"> 25 µM"
>>> observed_value("COc1ccc(N=NC(C(=O)c2ccccc2)C(=O)c2ccccc2)cc1")
"97 µM"
>>> observed_value("C/C(=N\\N=C(\\N)SB(F)F)c1ccc2ccccc2c1")
"> 100 µM"
>>> observed_value("Cn1c2ccccc2c2c3c(c4c5ccccc5n(C)c4c21)C(=O)NC3=O")
"> 100 µM"

Each compound below has a reported value. Please supply its TGI.
1. COc1cc(OC)c(C(=O)/C=C/c2cc3c(cc2OCc2ccccc2)OC(C)(C)CC3)cc1CC=C(C)C
2. CC[C@@]1(O)C(=O)OCc2c1cc1n(c2=O)Cc2c-1nc1ccccc1c2/C=N\NC(=O)C1CCCN1 (stereo not given in full)
3. O=C1/C(=C\c2cccc(Oc3ccccc3)c2)SC(c2ccccc2)N1c1ccccc1 (stereo not given)
4. CCC(=O)c1c(NOC2OCC(OC(C)=O)C(OC(C)=O)C2OC(C)=O)nc(OC)n(C)c1=O (stereo not given)
5. Nc1nonc1-c1nc2cnccc2n1C1CC1

12.6 µM
> 89.4 µM
> 100 µM
> 100 µM
> 25 µM

====

- Test system: EKVX NSCLC
- assay: NCI tumour cell line growth inhibition, 48 h
measured_attribute: TGI

Example entries and their recorded answers appear below.
>>> observed_value("COc1ccc(NC(=O)/C(=C/c2ccccc2)C(C)=O)cc1")
"49.4 µM"
>>> observed_value("C=C1C(=O)O[C@H]2C[C@@]3(COC(C)=O)C=COC=C(COC(=O)C(C)C)C3CC12 (stereo partly specified)")
"> 100 µM"
>>> observed_value("N#CN/C(N)=N/C/N=C(\\N)NC#N")
"> 100 µM"
>>> observed_value("COc1cc2ncn(-c3cc(OCc4ccccc4C(F)(F)F)c(C(=O)N(C)C)s3)c2cc1OC")
"> 25 µM"
>>> observed_value("Cc1ccc(S(=O)(=O)OC2C(O)C(O)OC2C(c2cc(O)c3c(c2O)C(=O)c2ccccc2C3=O)c2cc(O)c3c(c2O)C(=O)c2ccccc2C3=O)cc1 (stereo unspecified)")
"> 10 µM"

Each compound below has a reported value. Please supply its TGI.
1. CC(=O)Oc1ccc(C23c4ccccc4C2(OC(C)=O)c2cc(OC(C)=O)ccc23)cc1 (stereo unspecified)
2. COc1ccc(NC(=O)CSC2=C(Nc3cccc(Br)c3)C(=O)N(Cc3ccccc3)C2=O)cc1Cl
3. COC(=O)C1Cc2cc3c(cc2C1=O)CCCC3 (stereo unspecified)
4. O=c1cc(CO)oc2c3c(cc(O)c12)OCC(COC1OC(CO)C(O)C(O)C1O)=CC3 (stereo unspecified)
5. c1cc2c(cc1NC1=NCCO1)OCO2

1: 16.6 µM; 2: > 100 µM; 3: > 100 µM; 4: > 100 µM; 5: > 100 µM

Entry CC(=O)OC12C3C4C1C1C2C3C41OC(C)=O (stereo unspecified) , system EKVX NSCLC: what TGI was measured?
> 100 µM

====

- System: COLO 205 colon
- assay: NCI tumour cell line growth inhibition, 48 h; in the data active = GI50 below about 0.43 µM; inactive = the rest
Your reply should match one of these outcome classes. class 1 = active, class 0 = inactive

I would be grateful if you could indicate the recorded call for [C](#Cc1ccccc1)[Hg][C]#Cc1ccccc1 .
class 0

I would be grateful if you could indicate the recorded call for COc1cc(F)c(F)c(Nc2ccc(I)cc2F)c1NS(=O)(=O)C1(C[C@H](O)CO)CC1 .
class 1
